All values here come from paper PMC8745369.

Record: pKi reported on hCA IX (Homo sapiens).
Recall that pKi is obtained by taking minus log10 of the concentration measured in molar.

# count of solved cases: 8
O=C(CN1C(=O)SC(=Cc2ccc([N+](=O)[O-])cc2)C1=O)c1cc2cc(Br)ccc2oc1=O [10l]; 4.74
O=C(CN1C(=O)SC(=Cc2ccccc2Cl)C1=O)c1cc2ccccc2oc1=O [10f]; 5.66
O=C(CN1C(=O)SC(=Cc2cccs2)C1=O)c1cc2cc(Br)ccc2oc1=O [11c]; 6.23
Cc1ccc(C=C2SC(=O)N(CC(=O)c3cc4ccccc4oc3=O)C2=O)cc1 [10b]; 5.37
O=C(CN1C(=O)SC(=Cc2ccccc2)C1=O)c1cc2ccccc2oc1=O [10a]; 6.09
O=C(CN1C(=O)SC(=Cc2ccc([N+](=O)[O-])cc2)C1=O)c1cc2ccccc2oc1=O [10e]; 4.91
COc1ccc(OC)c(C=C2SC(=O)N(CC(=O)c3cc4cc(Br)ccc4oc3=O)C2=O)c1 [10k]; 4.79
O=C(CN1C(=O)SC(=Cc2ccccc2)C1=O)c1cc2cc(Br)ccc2oc1=O [10h]; 6.03

-- ask # get_value(readout= pKi, system= hCA IX (Homo sapiens)) for O=C(CN1C(=O)SC(=Cc2ccccc2Cl)C1=O)c1cc2cc(Br)ccc2oc1=O [10m]
-- reply 5.54

* * *

measure-name: melting point

O=C(CN1C(=O)SC(=Cc2cccs2)C1=O)c1cc2cc(Br)ccc2oc1=O [11c]; 255 to 257 °C
Cc1ccc(C=C2SC(=O)N(CC(=O)c3cc4cc(Br)ccc4oc3=O)C2=O)cc1 [10i]; 224 to 225 °C
O=C(CN1C(=O)SC(=Cc2ccccc2Cl)C1=O)c1cc2ccccc2oc1=O [10f]; 208 to 211 °C
O=C(CN1C(=O)SC(=Cc2ccc([N+](=O)[O-])cc2)C1=O)c1cc2cc(Br)ccc2oc1=O [10l]; 229 to 231 °C

-- ask Which value of melting point has been reported for O=C(CN1C(=O)SC(=Cc2ccccc2)C1=O)c1cc2cc(Br)ccc2oc1=O [10h] in the records?
-- reply 252 to 254 °C

-- ask Which melting point is listed for COc1ccc(OC)c(C=C2SC(=O)N(CC(=O)c3cc4ccccc4oc3=O)C2=O)c1 [10d] ?
-- reply 238 to 240 °C

-- ask Given the molecule Cc1ccc(C=C2SC(=O)N(CC(=O)c3cc4ccccc4oc3=O)C2=O)o1 [11b] , what is its reported melting point?
-- reply 227 to 229 °C

-- ask Looking for the measured melting point of O=C(CN1C(=O)SC(=Cc2ccccc2Cl)C1=O)c1cc2cc(Br)ccc2oc1=O [10m] , can you help?
-- reply 192 to 194 °C

-- ask If you can, please state the reported melting point value of COc1ccc(C=C2SC(=O)N(CC(=O)c3cc4cc(Br)ccc4oc3=O)C2=O)cc1 [10j] .
-- reply 245 to 247 °C

* * *

# study-system: hCA I (Homo sapiens)
# Sequence (P00915 whole entry): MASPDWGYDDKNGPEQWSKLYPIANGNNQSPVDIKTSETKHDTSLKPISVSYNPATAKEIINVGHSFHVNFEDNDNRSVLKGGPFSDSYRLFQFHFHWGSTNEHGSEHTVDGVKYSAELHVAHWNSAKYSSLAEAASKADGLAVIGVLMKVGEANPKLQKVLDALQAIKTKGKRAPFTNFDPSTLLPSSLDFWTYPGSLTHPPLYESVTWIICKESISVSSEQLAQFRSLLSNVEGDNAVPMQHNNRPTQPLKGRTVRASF
# protocol-text: Stopped flow CO2 hydrase assay, hCA I inhibition
# Format: biochemical
# assay-conditions: stopped flow technique; incubation time of 6 h; mean from 3 different assays; read-out: KI CA I
pKi: −log10 of the molar value.
Quick reference: pKi of the listed items.

-- ask Recall the recorded pKi for Cc1ccc(C=C2SC(=O)N(CC(=O)c3cc4cc(Br)ccc4oc3=O)C2=O)o1 [11d] with hCA I (Homo sapiens) and state it.
-- reply < 4.00
